Recorded OD450, one value per entry.
# tested.on: T1, Peptide 4: Biotin-AGGGGSGGGGSGGGGSAAA-Tyr-acid (N-terminal biotin; C-terminal acid; no PC)
# T1 construct: control peptide without PC
# T1 peptide: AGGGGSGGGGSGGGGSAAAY
# assay.protocol: scFv ELISA
experimental.readout: OD450 (OD450)

[[record]]
binder = "PcOxP_DB01_G07 (scFv, V domains shown, scFv in periplasmic extract) VH: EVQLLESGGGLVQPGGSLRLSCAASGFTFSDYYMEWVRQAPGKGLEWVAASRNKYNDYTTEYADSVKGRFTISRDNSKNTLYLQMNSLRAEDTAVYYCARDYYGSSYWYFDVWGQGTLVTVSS VL: DIVMTQSPDSLAVSLGERATINCTASESLYGSKHKVHYLAWYQQKPGQPPKLLIYGASNRYIGVPDRFSGSGSGTDFTLTISSLQAEDVAVYYCAQFYSYPLTFGGGTKVEIK"
experimental_readout = "OD450"
value_reported = 0.05

[[record]]
binder = "PcOxP_DB01_H01 (scFv, V domains shown, scFv in periplasmic extract) VH: EVQLLESGGGLVQPGGSLRLSCAASGFTFSSYYMEWVRQAPGKGLEWVAASRNKANLYTTEYADSVKGRFTISRDNSKNTLYLQMNSLRAEDTAVYYCARDYYGSSTWYFDVWGQGTLVTVSS VL: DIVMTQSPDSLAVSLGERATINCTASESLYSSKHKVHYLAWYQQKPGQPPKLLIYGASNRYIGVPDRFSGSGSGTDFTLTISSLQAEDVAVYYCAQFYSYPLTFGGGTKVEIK"
experimental_readout = "OD450"
value_reported = 0.07

[[record]]
binder = "PcOxP_DB01_A08 (scFv, V domains shown, scFv in periplasmic extract) VH: EVQLLESGGGLVQPGGSLRLSCAASGFTQSDFYMEWVRQAPGKGLEWVAAIRNKANSYTTEYADSVKGRFTISRDNSKNTLYLQMNSLRAEDTAVYYCARDYYGSSYWYFDVWGQGTLVTVSS VL: DIVMTQSPDSLAVSLGERATINCTASESVYSSKNKKHYLAWYQQKPGQPPKLLIYGASNRYIGVPDRFSGSGSGTDFTLTISSLQAEDVAVYYCAQFYSYPLTFGGGTKVEIK"
experimental_readout = "OD450"
value_reported = 0.05


Origin of measurements: patent US20250320312A1
